Target: T1, Anti-CD28 Fab (SEQ ID NOs: 202, 203)
T1 construct: biotinylated and captured on neutravidin coated plates in the phage ELISA
T1 sequence (VH, as listed by the source, chain 1 of 2): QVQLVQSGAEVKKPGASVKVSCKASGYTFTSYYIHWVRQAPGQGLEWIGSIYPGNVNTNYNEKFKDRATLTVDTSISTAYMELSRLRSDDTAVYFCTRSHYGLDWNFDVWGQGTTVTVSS
T1 sequence (VL, as listed by the source, chain 2 of 2): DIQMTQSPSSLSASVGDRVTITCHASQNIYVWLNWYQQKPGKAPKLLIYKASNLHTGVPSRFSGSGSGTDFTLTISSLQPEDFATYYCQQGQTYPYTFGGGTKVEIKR
Assay: phage ELISA on captured biotinylated Fab;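 further: wells preblocked with or without CD28 antigen, then clonal phage supernatant added briefly, washed, and bound phage read out by ELISA using HRP-linked anti-M13 antibody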
ENDPOINT_LABEL: Anti-CD28 Fab signal

| BINDER | RECORDED_RESULT |
| --- | --- |
| YCMGHSEEYMQKCL [Phage-196] | 2.11 |
| YCDGHSPEYMTKCL [Phage-294] | 1.93 |
| YCEGHTAEYLQKCL [Phage-208] | 2.09 |
| YCAGHSPEYMGKCM [Phage-209] | 2.09 |
| YCDGHMPEYMWKCL [Phage-170] | 2.17 |
| YCDGHAPEYMLKCL [Phage-151] | 2.2 |
| YCAGHLPEYIDKCL [Phage-219] | 2.07 |
| YCDGHMPEYMLKCL [Phage-199] | 2.11 |
| YCDGHAEQYMEKCL [Phage-215] | 2.08 |
| YCDGHLPEYMWKCI [Phage-178] | 2.15 |
| YCEGHSAEYMAKCL [Phage-184] | 2.14 |
| YCDGHLEEYMAKCL [Phage-198] | 2.11 |
| YCLGHAPQYIQKCL [Phage-243] | 2.04 |
| YCDGHSAEYMQKCL [Phage-279] | 1.95 |
| YCEGHSMQHMAKCL [Phage-217] | 2.07 |
| YCEGHLPVYMWKCL [Phage-169] | 2.17 |

These data points were gathered from patent US20260274955A1.
